- Test system: SK-MEL-5 melanoma
- procedure_summary: NCI tumour cell line growth inhibition, 48 h
I would appreciate it if you labelled entries True when TGI is 30 µM or higher, otherwise False.

| molecule | class_assignment |
| --- | --- |
| CCN(CC)CCCCCCCCNc1c2ccc(Cl)cc2nc2ccc(OC)cc12 | False |
| CC(=O)N1N=C(c2c(O)ccc3ccccc23)CC1C(=O)c1ccco1 (stereo not given) | True |
| O=S(=O)(c1cc(Cl)ccc1Cl)N1CCN(S(=O)(=O)c2cc(Cl)ccc2Cl)CC1 | True |
| Cc1cc2c(cc1-c1cc3c(cc1C)C(C(C)C)=C(O)C(=O)/C3=C\Nc1nc(-c3ccccc3)cs1)/C(=C/Nc1nc(-c3ccccc3)cs1)C(=O)C(O)=C2C(C)C | True |
| CCSc1ncnc2c(C3OC(CO)C(O)C3O)nsc12 (stereo not given) | True |
| CC(=O)O[C@@H]1C=CC(=O)C2(CC(=O)O[C@@H]2/C=C(\C)CCC=C(C)C)C1 (stereo not given in full) | False |
| CC(C)NC(=O)OCc1nnn2c1C(OC(=O)NC(C)C)CC2 (stereo not given) | True |
| COc1cc(C2c3cc4c(cc3C(O)C3CCC(=O)N23)OCO4)cc(OC)c1OC (stereo not given) | True |
| CCCCC/C=C1/CC(CO)(COC(=O)CC(C(C)C)C(C)C)OC1=O (stereo not given) | False |

---

- Tested on: SK-MEL-2 melanoma
- procedure_summary: NCI tumour cell line growth inhibition, 48 h
endpoint_label: TGI

| compound | endpoint_label | observed_measurement |
| --- | --- | --- |
| CCN1CCN(C(=O)[C@]23CC[C@@H](C)[C@H](C)[C@@H]2C2=CC[C@@H]4[C@@]5(C)C/C(=C/c6cccnc6)C(=O)C(C)(C)[C@@H]5CC[C@@]4(C)[C@]2(C)CC3)CC1 | TGI | 4.76 µM |
| CCCSc1cc(Cl)c(C)cc1S(=O)(=O)n1ccnc1OCCCN(C)C | TGI | > 100 µM |
| O=C1CCCC1C(=O)Nc1ccc2ccccc2c1 (stereo not given) | TGI | > 100 µM |
| Cc1cc(Cl)n2c(nc3ccccc32)c1C#N | TGI | 2.25 µM |
| Cc1nc2c(cc1C(=O)NN)c(=O)n(C)c(=O)n2C | TGI | > 100 µM |
| Nn1c(Cc2ccc(Cl)cc2)n[nH]c1=O | TGI | > 100 µM |
| CCc1ccc(Cc2ccc(CC)c(NC(=O)C(=O)Cc3nc4ccccc4nc3C)c2CC)c(CC)c1NC(=O)C(=O)Cc1nc2ccccc2nc1C | TGI | > 100 µM |
| CCOC(=O)c1cc2c(n1Cc1cccc(OC)c1)-c1oncc1CC2 | TGI | > 100 µM |
| COc1cc[c]([Hg][Cl])cc1 | TGI | 17.4 µM |
| COc1c(-c2cc(C)c(Cl)c(=O)[nH]2)c(O)c(OC)c2occc12 | TGI | > 100 µM |

---

Entries and their measured TGI follow.
- Test system: TK-10 renal
- procedure_summary: NCI tumour cell line growth inhibition, 48 h

| molecule | TGI |
| --- | --- |
| O=C(CCc1cccc(O)c1)NCCc1cccc(O)c1 | > 100 µM |
| CC1=NN(c2cccc(Cl)c2)C2(C1)C(Cl)C(=O)N2c1nc2ccccc2s1 (stereo not given) | > 100 µM |
| CC(=O)Nc1ccc(S(=O)(=O)Nc2nnc(S(N)(=O)=O)s2)cc1 | > 100 µM |
| CN(C(=O)C12C3C4(C(=O)O)C1(C(=O)N(C)C(C)(C)C)C1C2(C(=O)O)C3(C(=O)N(C)C(C)(C)C)C14C(=O)N(C)C(C)(C)C)C(C)(C)C (stereo not given) | > 100 µM |
| O=C1CCCC1C(=O)Nc1ccc2ccccc2c1 (stereo not given) | > 100 µM |

---

- System: UACC-62 melanoma
- procedure_summary: NCI tumour cell line growth inhibition, 48 h

| compound | measured_target | GI50 |
| --- | --- | --- |
| C(=N\Nc1ncc(-c2cc3cc4c(cc3o2)OCO4)s1)/c1c[nH]c2ccccc12 | UACC-62 melanoma | 1.75 µM |
| CC(C)Oc1cc(OCC(=O)O)cc(C(=O)N(CCC(N)=O)C(=O)Nc2ccc(C(=O)O)cc2OC(C)C)c1 | UACC-62 melanoma | > 100 µM |
| CCOC(=O)c1cnc2ccc(Cl)cc2c1NCCCN(C)C | UACC-62 melanoma | 16.4 µM |
| C=C1C(=O)O[C@@H]2[C@@H]3O[C@@](C)(CC/C=C(\C)CCC[C@@H]2C)[C@H](O)C[C@@H]13 | UACC-62 melanoma | 2.05 µM |
| CCCCc1ccc2nc(NC(=O)OC)[nH]c2c1 | UACC-62 melanoma | 0.0451 µM |
| CCc1cc(C(N)=O)ccc1-n1nc(C(C)C)c2c(-n3cnc(-c4cnn(C)c4)c3)ccnc21 | UACC-62 melanoma | 1.18 µM |
| COc1ccccc1/C=C1\COc2ccc(O)c(O)c2C1=O | UACC-62 melanoma | 1.59 µM |
| O=C1CCC/C=C\C[C@H]2C=C(Cl)C(=O)/C2=C/C[C@H](CCCCC(F)(F)F)OC(=O)CCC/C=C\C[C@H]2C=C(Cl)C(=O)/C2=C/C[C@H](CCCCC(F)(F)F)O1 | UACC-62 melanoma | 0.149 µM |
| CCc1nc(N)nc(N)c1-c1ccc(Cl)cc1 | UACC-62 melanoma | 3.93 µM |
| CCN(CC)CCCCCCCCNc1c2ccc(Cl)cc2nc2ccc(OC)cc12 | UACC-62 melanoma | 1.8 µM |
| CC/C=C/[C@@H]1C=C[C@@H]2CCC[C@H]2[C@@H]1CC[C@H](O)[C@H](C)N | UACC-62 melanoma | 1.61 µM |
| Cc1cc(Cl)n2c(nc3ccccc32)c1C#N | UACC-62 melanoma | 1.14 µM |
| O=P(O)(O)OC1C(OP(=O)(O)O)C(OP(=O)(O)O)C(OP(=O)(O)O)C(OP(=O)(O)O)C1OP(=O)(O)O (stereo not given) | UACC-62 melanoma | > 2000 µM |
| COc1ccc([C@H]2c3cc(OC)c(OC)cc3C=C(C=O)C2CO)cc1OC (stereo not given in full) | UACC-62 melanoma | 4.32 µM |
| COc1ccc(NC(=O)c2ccc(NC3=C(Cl)C(=O)N(Cc4ccccc4)C3=O)cc2)cc1 | UACC-62 melanoma | 16.3 µM |

---

Entries and their measured TGI follow.
- Test system: IGROV1 ovarian
- procedure_summary: NCI tumour cell line growth inhibition, 48 h

| compound | measured_target | TGI |
| --- | --- | --- |
| Nc1ccc2c(c1)C1Oc3ccccc3CC1CO2 (stereo not given) | IGROV1 ovarian | > 100 µM |
| Oc1ccc2c(c1)-c1c(c3cc(O)ccc3n1CCN1CCOCC1)CC2 | IGROV1 ovarian | > 100 µM |
| CCN1CCN(C(=O)[C@]23CC[C@@H](C)[C@H](C)[C@@H]2C2=CC[C@@H]4[C@@]5(C)C/C(=C/c6cccnc6)C(=O)C(C)(C)[C@@H]5CC[C@@]4(C)[C@]2(C)CC3)CC1 | IGROV1 ovarian | 3.87 µM |
| CC1(C)C2CCC1(CS(=O)(=O)Nc1ccccc1)C(=O)C2 (stereo not given) | IGROV1 ovarian | > 100 µM |
| CN(C)C1(C#N)CCC2(CC1)OCCO2 | IGROV1 ovarian | > 100 µM |

---

- Test system: K-562 leukemia
- procedure_summary: NCI tumour cell line growth inhibition, 48 h
Entries and their measured TGI follow.
endpoint_label: TGI

| molecule | measured_target | observed_measurement |
| --- | --- | --- |
| COC(=O)C1=CC(=O)C(C(=O)Nc2ccc(OC)cc2)C(c2ccccc2)O1 (stereo not drawn) | K-562 leukemia | > 100 µM |
| CN1CCC(O)C(CNC23CC4CC(CC(C4)C2)C3)C1 (stereo not drawn) | K-562 leukemia | > 100 µM |
| CN(Cc1c2ccccc2cc2ccccc12)S(=O)(=O)c1ccc(-c2c3nc(c(-c4ccc(S(=O)(=O)N(C)Cc5c6ccccc6cc6ccccc56)cc4)c4ccc([nH]4)c(-c4ccc(S(=O)(=O)N(C)Cc5c6ccccc6cc6ccccc56)cc4)c4nc(c(-c5ccc(S(=O)(=O)N(C)Cc6c7ccccc7cc7ccccc67)cc5)c5ccc2[nH]5)C=C4)C=C3)cc1 | K-562 leukemia | > 100 µM |

---

- Tested on: OVCAR-5 ovarian
- procedure_summary: NCI tumour cell line growth inhibition, 48 h
Entries and their measured TGI follow.

| compound | TGI |
| --- | --- |
| COc1c(-c2cc(C)c(Cl)c(=O)[nH]2)c(O)c(OC)c2occc12 | > 100 µM |
| C1=C[C@@H]2c3ccc4cnccc4c3NC[C@@H]2C1 | > 100 µM |
| COC12C=C/C(=C(/C(=O)OCc3ccncn3)C(=O)CCCCCCCCC3(OC)C=C/C(=C(/C(=O)OCc4ccncn4)C(=O)CCCCCCCC1)O3)O2 | 4.81 µM |
| COc1ccc(/C=C2/SC(=Nc3c(C)nn(-c4ccccc4)c3N)NC2=O)cc1 | 63.2 µM |
| CN(C)CCCn1cnc2ncccc2c1=O | > 100 µM |
| O=C1NN=C(c2ccc(Cl)cc2)CC1C1C(=O)N(c2ccccc2)N=C1c1ccccc1 (stereo unspecified) | 80.7 µM |
| CCOC(=O)c1ccc(-c2cc(C)[nH]n2)[nH]1 | > 100 µM |
| O=C(O)CC(NC(=O)Nc1ccc([N+](=O)[O-])cc1)C(=O)Nc1ccc([N+](=O)[O-])cc1 (stereo unspecified) | > 100 µM |
| CC1=NN(c2cccc(Cl)c2)C2(C1)C(Cl)C(=O)N2c1nc2ccccc2s1 (stereo unspecified) | > 100 µM |
| COC1OC(OC)C2C(c3c(C)cc(C)cc3C)=NOC12 (stereo unspecified) | > 100 µM |
| COc1ccc([C@H]2c3cc(OC)c(OC)cc3C=C(C=O)C2CO)cc1OC (stereo partly specified) | > 100 µM |
| Cc1cccc2c1C(=O)C1(Cc3ccccc3C1=O)C2 (stereo unspecified) | > 100 µM |
| COc1ccc2c(c1)OCC1(O)Cc3ccccc3OC21 (stereo unspecified) | > 100 µM |
| CCSSCS(C)(=O)=O | > 100 µM |
| CCN1CCN(C(=O)[C@]23CC[C@@H](C)[C@H](C)[C@@H]2C2=CC[C@@H]4[C@@]5(C)C/C(=C/c6cccnc6)C(=O)C(C)(C)[C@@H]5CC[C@@]4(C)[C@]2(C)CC3)CC1 | 2.93 µM |
| C=CCCc1cc(OC)ccc1CN(C)C(C)(C)CO | > 100 µM |
| CN(C)N=Nc1ccc([N+](=O)[O-])cc1C(N)=O | > 100 µM |
| CC(C)c1ccc2c(c1)CCC1C(C)(C)[C@@H](O)CC[C@]21C (stereo partly specified) | 41.7 µM |
| CC(C)CC(=O)NC(Nc1ccc(S(=O)(=O)Nc2ncccn2)cc1)(C(F)(F)F)C(F)(F)F | > 100 µM |
| [N-]=[N+]=Nc1ccc(S(=O)(=O)Oc2cc(OS(=O)(=O)c3ccc(N=[N+]=[N-])cc3)cc(OS(=O)(=O)c3ccc(N=[N+]=[N-])cc3)c2)cc1 | > 100 µM |
| Cc1nc2c(cnn2-c2ccnc3c(C(F)(F)F)cccc23)c(=O)o1 | > 100 µM |
